These records show IC50 for UniProt P00533.
Sequence (P00533 whole entry, looked up): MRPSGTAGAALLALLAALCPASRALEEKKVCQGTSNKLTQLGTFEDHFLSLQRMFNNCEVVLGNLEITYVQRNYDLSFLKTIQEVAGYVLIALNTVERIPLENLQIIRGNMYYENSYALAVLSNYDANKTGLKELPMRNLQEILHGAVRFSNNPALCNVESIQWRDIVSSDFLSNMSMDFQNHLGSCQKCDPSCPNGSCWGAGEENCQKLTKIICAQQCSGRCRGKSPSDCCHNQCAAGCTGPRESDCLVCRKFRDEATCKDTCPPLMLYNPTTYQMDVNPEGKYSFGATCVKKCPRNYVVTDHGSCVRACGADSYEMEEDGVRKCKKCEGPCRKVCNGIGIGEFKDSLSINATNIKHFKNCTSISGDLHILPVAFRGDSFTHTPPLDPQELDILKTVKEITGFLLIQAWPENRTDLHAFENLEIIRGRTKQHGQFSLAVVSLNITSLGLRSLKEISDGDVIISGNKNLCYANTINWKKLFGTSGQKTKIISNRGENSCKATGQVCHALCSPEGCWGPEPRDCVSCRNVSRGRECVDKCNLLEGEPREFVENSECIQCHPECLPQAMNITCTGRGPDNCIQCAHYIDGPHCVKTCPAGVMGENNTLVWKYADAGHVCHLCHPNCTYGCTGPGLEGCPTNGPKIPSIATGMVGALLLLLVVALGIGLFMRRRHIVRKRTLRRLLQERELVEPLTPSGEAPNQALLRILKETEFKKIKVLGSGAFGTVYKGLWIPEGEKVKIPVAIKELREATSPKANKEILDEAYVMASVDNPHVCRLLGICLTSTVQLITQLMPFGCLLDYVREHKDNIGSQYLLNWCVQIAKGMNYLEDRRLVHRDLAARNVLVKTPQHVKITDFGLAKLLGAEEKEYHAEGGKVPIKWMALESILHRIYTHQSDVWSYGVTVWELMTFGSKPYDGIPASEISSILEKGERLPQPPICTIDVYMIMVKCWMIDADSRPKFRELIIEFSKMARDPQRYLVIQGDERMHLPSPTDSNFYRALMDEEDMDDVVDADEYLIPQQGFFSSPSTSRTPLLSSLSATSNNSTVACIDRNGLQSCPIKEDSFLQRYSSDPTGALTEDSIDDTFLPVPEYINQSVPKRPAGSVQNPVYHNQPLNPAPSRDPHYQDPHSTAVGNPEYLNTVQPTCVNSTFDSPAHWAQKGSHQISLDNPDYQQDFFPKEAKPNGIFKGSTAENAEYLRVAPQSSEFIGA
measure: IC50 (µM)

[A] Cc1oncc1C(=O)Nc1ccc(C(F)(F)F)cc1
[B] C/C(O)=C(/C#N)C(=O)Nc1ccc(OC(F)(F)F)cc1
Which one would you say has the larger IC50 value: A , or B ? Field: selected label. Fill in the label of the entry you choose.
A
(A: 97 µM, B: 28.4 µM)

Origin of the recorded values: the Kinase Knowledgebase extract (Sharma et al. 2016)
